tested on: SEM cells; test: cell viability relative to DMSO control; higher = less cytotoxic; conditions: RPMI 5 mM glucose + 10% dialyzed FBS; 48 h; 0.00234 µM
# cell viability per entry
Only the number, expressed in %, is required.

// below: answered molecules
Molecule: CNC1[C@@H](O)C(O[C@@H]2C(O)C(O[C@H]3O[C@H]([C@@H](C)NC)CC[C@H]3N)[C@@H](N)C[C@H]2N)OC[C@]1(C)O (stereo not given in full)
cell viability, %: 101
//
Molecule: Cc1c(Cn2c(C)nc3c(C(=O)O)cc(N4CCOCC4)cc32)cccc1C(F)(F)F
cell viability, %: 105
//
Molecule: CC(C)Nc1cc(C(F)(F)F)cc2nc(NC(=O)c3cccnc3)nn12
cell viability, %: 98.6
//
Molecule: CC1(C)C(=O)N(CCN2CCC(C(=O)c3ccc(F)cc3)CC2)c2ccccc21
cell viability, %: 109
//
Molecule: O=C(NC[C@H](O)CN1CCc2ccccc2C1)c1cc(NC2COC2)ncn1
cell viability, %: 107
//
Molecule: CCCCNc1cc(C(=O)O)cc([S+](N)(=O)[O-])c1Oc1ccccc1
cell viability, %: 110
//
Molecule: OC(=O)\C1=C\N(C2=CC=C(F)C=C2)C3=C(C=C(F)C(=C3)N4CCNCC4)C1=O
cell viability, %: 103
//
Molecule: CC\1=C(C(=O)N(\C=C1)C2=CC=C(C=C2)C3=NC=CO3)/C4=CC5=CN=C(N)N=C5C=C4
cell viability, %: 104

Note to self: cell viability recorded for COc1cc(O)c2c(c1)C1OC1C[C@H](O)[C@H](O)C(=O)/C=C\C[C@H](C)OC2=O (stereo not given in full) was 119

Note to self: cell viability recorded for CC(C)C[C@H](NC(=O)[C@@H](NC(=O)c1cccc(-c2ccccc2)n1)[C@@H](C)O)B(O)O was 100

###

# cell viability per entry
system: SEM cells; assay: cell viability relative to DMSO control; higher = less cytotoxic; conditions: RPMI 5 mM glucose + 10% FBS; 48 h; 0.19 µM
Only the number, expressed in %, is required.

Compound: CCc1c(C(=O)C(N)=O)c2c(OCC(=O)O)cccc2n1Cc1ccccc1
cell viability (%): 98.4
//
Compound: Cc1cccc(C)c1OCC(=O)N[C@@H](Cc1ccccc1)[C@@H](O)C[C@H](Cc1ccccc1)NC(=O)[C@H](C(C)C)N1CCCNC1=O
cell viability (%): 103
//
Compound: O=C(NC[C@H](O)CN1CCc2ccccc2C1)c1cc(NC2COC2)ncn1
cell viability (%): 121
//
Compound: Cc1cccc(-c2nn(C(=S)Nc3ccccc3)cc2-c2ccnc3ccccc23)n1
cell viability (%): 130
//
Compound: COc1cc2c(Oc3ccc(NC(=O)C4(C(=O)Nc5ccc(F)cc5)CC4)cc3F)ccnc2cc1OCCCN1CCOCC1
cell viability (%): 33.6
//
Compound: OC[C@H](Cc1ccccc1)Nc1nc(Oc2ccc3c(c2)CCC3)nc2c1ncn2Cc1ccc(-c2ccccc2)cc1
cell viability (%): 89.2
//
Compound: O=C1Nc2cc(Br)ccc2/C1=C1/Nc2ccccc2/C1=N\O
cell viability (%): 98.8
//
Compound: CC\1=C(C(=O)N(\C=C1)C2=CC=C(C=C2)C3=NC=CO3)/C4=CC5=CN=C(N)N=C5C=C4
cell viability (%): 111
//
Compound: CC(=O)CC(C1=CC=CC=C1)C/2=C(O)/C3=CC=CC=C3OC2=O (stereo not given)
cell viability (%): 105
//
Compound: CCOC(=O)[C@H](CCc1ccccc1)N[C@@H](C)C(=O)N1CCC[C@H]1C(=O)O
cell viability (%): 112

Note to self: cell viability recorded for Cc1ncc(OC[C@@]2(c3cccc(F)c3)C[C@H]2C(=O)Nc2ccc(F)cn2)c(C)n1 was 133

Note to self: cell viability recorded for N[S+](=O)([O-])c1cc(Cl)c(Cl)c([S+](N)(=O)[O-])c1 was 112

Note to self: cell viability recorded for c1cc(CN2CCCNCCNCCCNCC2)ccc1CN1CCCNCCNCCCNCC1 was 92.9

Note to self: cell viability recorded for CC(=O)C\1=C(/C)C2=CN=C(NC3=CC=C(C=N3)N4CCNCC4)N=C2N(C5CCCC5)C1=O was 126

Note to self: cell viability recorded for O=C1\C=C/C[C@@H]2[C@H]3CCCN4CCC[C@@H](CN12)[C@@H]34 was 59.3

Note to self: cell viability recorded for CN(C/C=C/C#CC(C)(C)C)Cc1cccc2ccccc12 was 101

Note to self: cell viability recorded for CC(=O)OCC(=O)[C@@]12\N=C(C)/O[C@@H]1C[C@H]3[C@@H]4CCC/5=C/C(=O)/C=C\[C@]5(C)[C@H]4[C@@H](O)C[C@]23C was 109

Note to self: cell viability recorded for O=C(/C=C/c1c(C(=O)[O-])[nH]c2cc(Cl)cc(Cl)c12)Nc1ccccc1 was 112

Note to self: cell viability recorded for Cc1c(Cn2c(C)nc3c(C(=O)O)cc(N4CCOCC4)cc32)cccc1C(F)(F)F was 112

Note to self: cell viability recorded for CCN(CC)CCCCNc1nc2cc(Cl)c(Cl)cc2nc1-c1ccc(-c2cccs2)s1 was 102

Note to self: cell viability recorded for Oc1ccc(/C=C/c2cc(O)cc(O)c2)cc1 was 108

Note to self: cell viability recorded for CO[C@H]1C[C@@H]2CC[C@@H](C)[C@@](O)(O2)C(=O)C(=O)N2CCCC[C@H]2C(=O)O[C@H]([C@H](C)C[C@@H]2CC[C@@H](OC(=O)C(C)(CO)CO)[C@H](OC)C2)CC(=O)[C@H](C)/C=C(\C)[C@@H](O)[C@@H](OC)C(=O)[C@H](C)C[C@H](C)/C=C/C=C/C=C/1C was 56.3

Note to self: cell viability recorded for O=C(CO)N1CCC(c2n[nH]c(-c3ccc(Cl)cc3)c2-c2ccncn2)CC1 was 123

Note to self: cell viability recorded for O=C(/C=C/c1cccc([S+](=O)([O-])Nc2ccccc2)c1)NO was 81.1

Note to self: cell viability recorded for C\C1=C\N([C@H]2C[C@H](N=[N+]=[N-])[C@@H](CO)O2)C(=O)NC1=O was 101
